- Measured On: PARP1 WT (UniProt P09874 1-1014)
- Sequence (P09874 whole entry): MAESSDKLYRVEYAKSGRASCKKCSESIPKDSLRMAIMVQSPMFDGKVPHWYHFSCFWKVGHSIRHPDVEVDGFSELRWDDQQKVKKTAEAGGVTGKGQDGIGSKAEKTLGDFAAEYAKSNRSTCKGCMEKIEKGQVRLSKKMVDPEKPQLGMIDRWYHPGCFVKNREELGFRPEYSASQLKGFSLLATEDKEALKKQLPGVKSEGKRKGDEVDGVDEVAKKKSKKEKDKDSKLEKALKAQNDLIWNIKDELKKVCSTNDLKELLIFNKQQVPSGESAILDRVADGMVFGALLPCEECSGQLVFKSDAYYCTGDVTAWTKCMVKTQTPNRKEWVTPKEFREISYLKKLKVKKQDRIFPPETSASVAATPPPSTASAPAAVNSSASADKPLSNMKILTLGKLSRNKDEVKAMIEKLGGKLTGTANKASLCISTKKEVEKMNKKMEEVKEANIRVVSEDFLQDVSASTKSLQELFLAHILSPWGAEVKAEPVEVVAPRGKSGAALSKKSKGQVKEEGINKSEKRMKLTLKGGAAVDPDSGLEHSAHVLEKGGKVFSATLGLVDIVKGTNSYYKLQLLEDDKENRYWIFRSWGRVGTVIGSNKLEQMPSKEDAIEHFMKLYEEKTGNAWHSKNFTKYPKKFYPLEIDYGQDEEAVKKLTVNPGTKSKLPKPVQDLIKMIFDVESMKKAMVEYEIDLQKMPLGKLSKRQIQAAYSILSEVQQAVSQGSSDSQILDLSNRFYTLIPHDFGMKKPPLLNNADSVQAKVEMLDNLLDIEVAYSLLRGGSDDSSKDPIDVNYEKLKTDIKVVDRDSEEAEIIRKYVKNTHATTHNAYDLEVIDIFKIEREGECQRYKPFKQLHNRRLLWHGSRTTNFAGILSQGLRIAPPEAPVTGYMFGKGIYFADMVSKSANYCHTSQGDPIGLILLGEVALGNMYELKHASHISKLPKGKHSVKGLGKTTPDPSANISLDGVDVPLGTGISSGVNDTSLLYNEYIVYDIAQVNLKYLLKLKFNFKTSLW
- Experiment: fluorescence polarization
pKd: −log10 of the molar value.
Endpoint Label: pKd

[[record]]
binder = "18-bp DNA duplex (dsDNA) DNA 1: GGGTTGCGGCCGCTTGGG DNA 2: CCCAAGCGGCCGCAACCC"
result_number = 7.54

